- target_of_assay: human BAFF (human, UniProt Q9Y275 82-285, limits assumed)
- Sequence (Q9Y275 82-285 limits assumed): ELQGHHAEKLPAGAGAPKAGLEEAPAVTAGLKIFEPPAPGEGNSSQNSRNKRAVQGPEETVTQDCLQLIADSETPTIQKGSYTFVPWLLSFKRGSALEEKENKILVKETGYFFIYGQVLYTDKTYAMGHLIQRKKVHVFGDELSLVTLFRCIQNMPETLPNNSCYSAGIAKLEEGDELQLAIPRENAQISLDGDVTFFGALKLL
- test_description: shotgun scan, phage display
result_type: F (BAFF)
Respond using a number only.

Data point: SLSCRKEQGKFYDHLLRDCISCASICGQHPTQCAYFCENKLR (receptor, phage library variant, format as m9) [TACI_d2 K98T] ; F (BAFF) = 8.7

Data point: SLSCRKEEGKFYDHLLRDCISCASICGQHPKQCAYFCENKLR (receptor, phage library variant, format as m9) [TACI_d2 Q75E] ; F (BAFF) = 0.7

Data point: SLSCRKEQGKFYDHLLRDCISCASICGQHPKQCAYFCENKVR (receptor, phage library variant, format as m9) [TACI_d2 L108V] ; F (BAFF) = 1.2

Data point: SLSCRKEQGKFYDHLLRDCISCASICGQHPKQCAYFCENKAR (receptor, phage library variant, format as m9) [TACI_d2 L108A] ; F (BAFF) = 1.2

Data point: SLSCRKEQGKFYDHLLRDCISCASICGQHPKECAYFCENKLR (receptor, phage library variant, format as m9) [TACI_d2 Q99E] ; F (BAFF) = 0.8

Data point: SLSCPKEQGKFYDHLLRDCISCASICGQHPKQCAYFCENKLR (receptor, phage library variant, format as m9) [TACI_d2 R72P] ; F (BAFF) = 0.6

Data point: SLSCRKEQGEFYDHLLRDCISCASICGQHPKQCAYFCENKLR (receptor, phage library variant, format as m9) [TACI_d2 K77E] ; F (BAFF) = 0.9

Data point: SLSCRKEQGKFYDHLLRDCISCASTCGQHPKQCAYFCENKLR (receptor, phage library variant, format as m9) [TACI_d2 I92T] ; F (BAFF) = 0.9

Data point: SLSCRKEQGKFYDHLLRDCVSCASICGQHPKQCAYFCENKLR (receptor, phage library variant, format as m9) [TACI_d2 I87V] ; F (BAFF) = 1.1

Data point: SLSCRKEQGKFYDHLLRACISCASICGQHPKQCAYFCENKLR (receptor, phage library variant, format as m9) [TACI_d2 D85A] ; F (BAFF) = 0.8

Data point: SLSCRKEQGKFYDHLLRDCISCASICGQHPKQCAYFCENKLG (receptor, phage library variant, format as m9) [TACI_d2 R109G] ; F (BAFF) = 1.2

Data point: SLSCRKEQGKFYDHLLRDCISCASICGQHPKQCAYFCENKLP (receptor, phage library variant, format as m9) [TACI_d2 R109P] ; F (BAFF) = 1.2

Data point: SLSCRKEQGKAYDHLLRDCISCASICGQHPKQCAYFCENKLR (receptor, phage library variant, format as m9) [TACI_d2 F78A] ; F (BAFF) = 1.1

Data point: SLSCRKEQGKFYDHLLRDCISCASICGQHPKQCAYVCENKLR (receptor, phage library variant, format as m9) [TACI_d2 F103V] ; F (BAFF) = 0.7

Data point: SLSCRKEQGKFYDPLLRDCISCASICGQHPKQCAYFCENKLR (receptor, phage library variant, format as m9) [TACI_d2 H81P] ; F (BAFF) = 0.8

Data point: SLSCRKEQGKFYDHLLRDCISCASICGQHPKQCADFCENKLR (receptor, phage library variant, format as m9) [TACI_d2 Y102D] ; F (BAFF) = 0.6

Data point: SLSCGKEQGKFYDHLLRDCISCASICGQHPKQCAYFCENKLR (receptor, phage library variant, format as m9) [TACI_d2 R72G] ; F (BAFF) = 0.4

Data point: SLSCRKEQGKFYDHLLRDCISCASVCGQHPKQCAYFCENKLR (receptor, phage library variant, format as m9) [TACI_d2 I92V] ; F (BAFF) = 0.5

Data point: SLSCRKEQGKFYDHLLRDCISCASICGQHPKQCAYFCETKLR (receptor, phage library variant, format as m9) [TACI_d2 N106T] ; F (BAFF) = 1.2

Data point: SLSCRKEPGKFYDHLLRDCISCASICGQHPKQCAYFCENKLR (receptor, phage library variant, format as m9) [TACI_d2 Q75P] ; F (BAFF) = 0.8

Data point: SLSCRKEQGKFYDHLLRDCISCASICGQHPKQCAYFCEAKLR (receptor, phage library variant, format as m9) [TACI_d2 N106A] ; F (BAFF) = 0.9

Data point: SLSCRKAQGKFYDHLLRDCISCASICGQHPKQCAYFCENKLR (receptor, phage library variant, format as m9) [TACI_d2 E74A] ; F (BAFF) = 0.6

Data point: SLSCRKEQGKFYDHLLRDCISCASICGQHPKQCAAFCENKLR (receptor, phage library variant, format as m9) [TACI_d2 Y102A] ; F (BAFF) = 2

The reported numbers originate from patent US20080181886A1.
